Target: UniProt:P35368
Sequence (P35368 whole entry): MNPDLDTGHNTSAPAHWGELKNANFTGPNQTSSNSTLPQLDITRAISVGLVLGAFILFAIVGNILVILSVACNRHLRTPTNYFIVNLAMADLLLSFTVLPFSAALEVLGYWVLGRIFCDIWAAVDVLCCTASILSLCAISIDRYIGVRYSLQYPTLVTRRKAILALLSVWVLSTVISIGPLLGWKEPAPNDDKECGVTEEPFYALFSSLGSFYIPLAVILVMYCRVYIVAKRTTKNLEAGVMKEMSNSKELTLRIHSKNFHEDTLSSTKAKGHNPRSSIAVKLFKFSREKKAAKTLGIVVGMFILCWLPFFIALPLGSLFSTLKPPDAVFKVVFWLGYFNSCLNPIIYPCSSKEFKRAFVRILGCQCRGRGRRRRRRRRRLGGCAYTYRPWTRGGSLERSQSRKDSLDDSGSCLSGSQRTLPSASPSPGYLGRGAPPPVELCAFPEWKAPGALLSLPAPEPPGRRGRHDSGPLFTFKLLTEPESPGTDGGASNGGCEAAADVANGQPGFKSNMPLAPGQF
Assay: Radioligand binding, adrenergic α1B (Protocol Group B)
Set-up: purchased Milipore (Millipore)
Settings: 0.3 μM compound; Protocol Group B; 0.3 µM
Reported Property: Percentage inhibition of ligand binding, Adrenergic α1B (0.3 μM) (%)

Check out these entries, answers already filled in.
>>> value_reported("Cc1ccc2c(c1)c1c(n2CC(C)(O)c2cccnc2)CCN(C)C1CO (single isomer, unassigned) [16b]")
5
>>> value_reported("Cc1ccc2c(c1)c1c(n2CC(C)(O)c2ccc(F)cc2)CC2CCC1N2C (single isomer, unassigned) [102a]")
22
>>> value_reported("Cc1ccc2c(c1)c1c(n2CC(O)c2ccncc2)CNC2CCCC12 (single isomer, unassigned) [34a]")
"−10"
>>> value_reported("CC(O)(Cn1c2c(c3cc(F)ccc31)C1CCCN1CC2)c1ccncc1 (single isomer, unassigned) [31d]")
11
>>> value_reported("CCOC(Cn1c2c(c3cc(C)ccc31)CN(C)CC2)c1ccncc1 (single isomer, unassigned) [43b]")
30
>>> value_reported("CC(O)(Cn1c2c(c3cc(Cl)cc(F)c31)C1CCCN1CC2)c1ccncc1 (single isomer, unassigned) [52c]")
0
>>> value_reported("Cc1ccc2c(c1)c1c(n2CC(C)(O)c2ccc(F)cc2)CC2CCC1N2C (single isomer, unassigned) [102c]")
5

1 = Cc1ccc2c(c1F)c1c(n2CC(C)(O)c2cccnc2)CCN2CCCC12 (single isomer, unassigned) [87b]
2 = Cc1ccc2c(c1)c1c(n2CC(O)c2ccncc2F)CCN2CCCC12 (single isomer, unassigned) [14b]
-- ask Hey, between 1 and 2 which has a smaller measured Percentage inhibition of ligand binding, Adrenergic α1B (0.3 μM)? Respond using the label that marks the chosen record.
-- reply 1
(1: 35%, 2: 95%)
